These measurements were taken from patent US20100029575A1.

target: P450 2C9 (Homo sapiens, UniProt P11712)
Sequence (P11712 whole entry): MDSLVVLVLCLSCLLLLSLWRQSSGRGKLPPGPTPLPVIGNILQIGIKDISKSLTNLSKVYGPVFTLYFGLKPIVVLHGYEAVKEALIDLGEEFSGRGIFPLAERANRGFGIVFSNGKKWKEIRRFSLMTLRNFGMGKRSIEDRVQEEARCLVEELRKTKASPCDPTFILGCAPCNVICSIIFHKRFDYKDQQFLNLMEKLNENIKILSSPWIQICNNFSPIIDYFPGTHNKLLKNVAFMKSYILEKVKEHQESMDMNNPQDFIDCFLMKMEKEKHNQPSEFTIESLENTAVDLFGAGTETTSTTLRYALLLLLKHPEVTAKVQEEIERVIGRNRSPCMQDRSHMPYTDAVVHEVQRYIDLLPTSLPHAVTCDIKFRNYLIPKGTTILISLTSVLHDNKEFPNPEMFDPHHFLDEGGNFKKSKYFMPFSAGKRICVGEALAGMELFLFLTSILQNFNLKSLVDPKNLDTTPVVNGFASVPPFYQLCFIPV
test_summary: P450 2C9 inhibition
Assay type: in vitro ADME
Square brackets hold non-standard residues; d marks the D form. Peptide text beside a SMILES is read from it. * marks the point of attachment. dNle = CCCC[C@@H](N)C(=O)O; X1 = [O-][n+]1ccc(CN*)cc1

molecule	IC50
CCCC[C@@H](NC(=O)[C@@H](Cc1ccccc1)NC(=O)[C@H](N)Cc1ccccc1)C(=O)N[C@H](CCCNC(=N)N)C(=O)NCc1cc[n+]([O-])cc1 [Peptide No. 1] (H-[dF][dF][dNle][dR]-X1)	> 10 µM

----------
target: Kappa Opioid Receptor (Mus musculus, UniProt P33534)
Construct: (cAMP, mouse brain); from tissue; host or cells: mouse brain
Sequence (P33534 whole entry): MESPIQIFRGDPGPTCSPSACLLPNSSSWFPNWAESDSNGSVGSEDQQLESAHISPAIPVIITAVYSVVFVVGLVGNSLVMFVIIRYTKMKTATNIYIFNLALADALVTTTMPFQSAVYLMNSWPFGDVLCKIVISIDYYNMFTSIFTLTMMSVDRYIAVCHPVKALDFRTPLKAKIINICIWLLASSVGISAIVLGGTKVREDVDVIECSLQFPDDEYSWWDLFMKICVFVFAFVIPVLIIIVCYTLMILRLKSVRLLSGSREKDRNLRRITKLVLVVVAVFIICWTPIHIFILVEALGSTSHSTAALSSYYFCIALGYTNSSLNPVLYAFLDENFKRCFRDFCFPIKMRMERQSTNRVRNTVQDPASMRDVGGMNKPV
test_summary: Functional second messenger assay, Gi-mediated inhibition of adenylate cyclase (cAMP, mouse brain)
Assay type: biochemical
condition_parameters: Kappa Opioid Receptor Activity EC50, cAMP, Mean
Square brackets hold non-standard residues; d marks the D form. Peptide text beside a SMILES is read from it. * marks the point of attachment. dNle = CCCC[C@@H](N)C(=O)O; X1 = [O-][n+]1ccc(CN*)cc1

compound	reading_unit	EC50
CCCC[C@@H](NC(=O)[C@@H](Cc1ccccc1)NC(=O)[C@H](N)Cc1ccccc1)C(=O)N[C@H](CCCNC(=N)N)C(=O)NCc1cc[n+]([O-])cc1 [Peptide No. 1] (H-[dF][dF][dNle][dR]-X1)	nM	0.42
